- target_or_system: FPRL1 (Homo sapiens)
- experiment: WKYMVm-induced [Ca2+]i increase in FPRL1-expressing RBL-2H3 cells (fura-2)
- settings: inhibition of FPRL1 agonist-induced intracellular calcium increase; peptide added before agonist
pIC50: −log10 of the molar value. Where a SMILES comes first, the peptide text is derived from it. [ ]: non-standard residue; d: D form.
measure_name: pIC50

Reported pIC50 for FPRL1 (Homo sapiens), given N=C(N)NCCC[C@H](NC(=O)[C@@H](N)Cc1c[nH]c2ccccc12)C(=O)N[C@@H](Cc1c[nH]c2ccccc12)C(=O)N[C@@H](Cc1c[nH]c2ccccc12)C(N)=O [SEQ ID NO:34] (H-WRWW-NH2) ?
< 5.00

One more compound: N=C(N)NCCC[C@H](N)C(=O)N[C@@H](Cc1c[nH]c2ccccc12)C(=O)N[C@@H](Cc1c[nH]c2ccccc12)C(=O)N[C@H](Cc1c[nH]c2ccccc12)C(N)=O [SEQ ID NO:36] (H-RWW[dW]-NH2)
< 5.00

One more compound: N=C(N)NCCC[C@H](NC(=O)[C@@H](N)Cc1c[nH]c2ccccc12)C(=O)N[C@@H](Cc1c[nH]c2ccccc12)C(N)=O [SEQ ID NO:7] (H-Trp-Arg-Trp-NH2)
< 5.00

###

- target_or_system: FPRL1 (Homo sapiens, UniProt P25090)
- Construct: expressed in transfected cells; host or cells: RBL-2H3 (rat basophilic leukaemia) cells
- Sequence (P25090 whole entry): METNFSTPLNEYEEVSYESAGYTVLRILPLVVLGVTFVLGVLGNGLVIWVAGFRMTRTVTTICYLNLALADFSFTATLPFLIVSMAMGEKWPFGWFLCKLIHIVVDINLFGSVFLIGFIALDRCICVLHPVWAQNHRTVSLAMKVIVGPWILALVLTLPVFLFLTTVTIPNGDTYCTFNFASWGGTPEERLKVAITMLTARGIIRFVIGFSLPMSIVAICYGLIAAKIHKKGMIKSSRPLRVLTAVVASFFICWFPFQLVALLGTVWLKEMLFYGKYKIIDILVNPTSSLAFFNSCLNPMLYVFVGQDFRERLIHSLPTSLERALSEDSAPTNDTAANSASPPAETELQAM
- experiment: WKYMVm-induced [Ca2+]i increase in FPRL1-expressing RBL-2H3 cells (fura-2)
- Assay type: cell-based
- settings: inhibition of FPRL1 agonist-induced intracellular calcium increase; peptide added before agonist
pIC50: −log10 of the molar value. Where a SMILES comes first, the peptide text is derived from it. [ ]: non-standard residue; d: D form.
measure_name: pIC50

NC(=O)[C@@H](Cc1c[nH]c2ccccc12)NC(=O)[C@H](Cc1c[nH]c2ccccc12)NC(=O)[C@H](Cc1c[nH]c2ccccc12)NC(=O)[C@@H](N)Cc1c[nH]c2ccccc12 [SEQ ID NO:35] (H-WWW[dW]-NH2): < 5.00
NC(=O)[C@@H](Cc1c[nH]c2ccccc12)NC(=O)[C@H](Cc1c[nH]c2ccccc12)NC(=O)[C@H](Cc1c[nH]c2ccccc12)NC(=O)[C@H](Cc1c[nH]c2ccccc12)NC(=O)[C@H](Cc1c[nH]c2ccccc12)NC(=O)[C@@H](N)Cc1c[nH]c2ccccc12 [SEQ ID NO:32] (H-WWWWW[dW]-NH2): < 5.00

Quick one: pIC50 for CSCC[C@H](NC(=O)[C@H](Cc1c[nH]c2ccccc12)NC(=O)[C@H](Cc1c[nH]c2ccccc12)NC(=O)[C@H](CCCNC(=N)N)NC(=O)[C@H](Cc1c[nH]c2ccccc12)NC(=O)[C@H](N)Cc1c[nH]c2ccccc12)C(N)=O [wWRWWM] (H-[dW]WRWWM-NH2) ?
8.09
